# credit: patent US20140294978A1

Assay: Average particle diameter of the lipid nanoparticles in each preparation (Zetasizer Nano ZS)
Format: physicochemical
Conditions: preparations of Comparative Example 1, made as in Example 9, with apo-b siRNA
Result Type: Particle diameter of Preparation obtained (nm)

CCCCC/C=C\C/C=C\CCCCCCCCN(CCCCCCCC/C=C\C/C=C\CCCCC)C(=O)OCCCN [Compound VII-3, reference compound] :: 177.7
CCCCC/C=C\C/C=C\CCCCCCCCN(CCCCCCCC/C=C\C/C=C\CCCCC)C(=O)CCCCN [Compound VII-1, reference compound] :: 176.6
CCCCC/C=C\C/C=C\CCCCCCCCN(CCCCCCCC/C=C\C/C=C\CCCCC)C(=O)CCCCN(C)C [Compound VII-2, reference compound] :: 160.1
CCCCC/C=C\C/C=C\CCCCCCCCC1(CCCCCCCC/C=C\C/C=C\CCCCC)OCC(CCN(C)C)O1 (stereo not shown) [DLin-KC2-DMA, reference compound] :: 159.8

----------
Experiment: Average particle diameter of the lipid nanoparticles in each preparation (Zetasizer Nano ZS)
Format: physicochemical
Details: preparations of Example 9: cationic lipid/PEG-DMPE Na/DSPC/cholesterol with apo-b siRNA
Result Type: Particle diameter of Preparation obtained (nm)

CCCCC/C=C\C/C=C\CCCCCCCCN(CCCCCCCC/C=C\C/C=C\CCCCC)C(=O)OCCCN(C)C :: 151.8
CCCCC/C=C\C/C=C\CCCCCCCCN(CCCCCCCC/C=C\C/C=C\CCCCC)C(=O)OCCN(C)C :: 137.0
CCCCC/C=C\C/C=C\CCCCCCCCCCN(CCCCCCCCCC/C=C\C/C=C\CCCCC)C(=O)OCCCN(C)C :: 159.0
CCCCCCCC/C=C\CCCCCCCCN(CCCCCCCC/C=C\CCCCCCCC)C(=O)OCCCN(C)C :: 135.8
CCCCCC/C=C\CCCCCCCCN(CCCCCCCC/C=C\CCCCCC)C(=O)OCCCN(C)C :: 150.0
